Each recorded value in this set is attributed to patent US10294212B2.

Items are presented alongside their recorded pIC50.
TARGET_OR_TEST_SYSTEM: Human TDO (hTDO)-transfected CHO-K1 cells (Homo sapiens (Human), UniProt P48775)
Sequence (P48775 whole entry): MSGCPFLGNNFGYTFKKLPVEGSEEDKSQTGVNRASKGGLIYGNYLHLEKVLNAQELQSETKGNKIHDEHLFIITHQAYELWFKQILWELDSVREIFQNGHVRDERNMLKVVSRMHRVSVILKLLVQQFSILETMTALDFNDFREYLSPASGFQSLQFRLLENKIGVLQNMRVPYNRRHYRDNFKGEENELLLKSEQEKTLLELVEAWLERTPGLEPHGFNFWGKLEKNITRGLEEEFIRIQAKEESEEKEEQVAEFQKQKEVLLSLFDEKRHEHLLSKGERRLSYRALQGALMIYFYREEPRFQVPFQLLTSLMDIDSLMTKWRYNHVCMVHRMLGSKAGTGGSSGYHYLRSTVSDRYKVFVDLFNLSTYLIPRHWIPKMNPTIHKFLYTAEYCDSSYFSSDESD
ASSAY_METHOD_TEXT: CHO-K1 cell based TDO assay
CONDITION_DETAILS: hTDO cellular assay
pIC50: −log10 of the molar value.

Record excerpt, results attached:
Nc1oc2c(-c3cc(Cl)cc(Cl)c3)nccc2c1Nc1ccc(F)c(Cl)c1
< 5.70
Cc1cc(-c2nc(F)cc3c(Nc4ccc(F)cc4)c(N)oc23)ccn1
> 6.30
Nc1oc2c(-c3cc(F)cc(F)c3)nccc2c1Nc1ccc(F)c(Cl)c1
5.70 to 6.30
Nc1oc2cnccc2c1Nc1ccc2c(c1)OCO2
5.70 to 6.30
Cc1ccc2sc(N)c(Nc3ccc(F)c(F)c3)c2c1
< 5.70

Query block: For the compound Cc1cc(Cl)cc(Nc2c(N)oc3cnccc23)c1 , what pIC50 is on record?
Result block: 5.70 to 6.30

Query block: // returns reported pIC50 for input CCOC(=O)Nc1oc2c(-c3ccc(C(N)=O)cc3)nccc2c1Nc1ccc(F)c(Cl)c1
Result block: < 5.70

Query block: Any idea what pIC50 was measured for CCCc1nccc2c(Nc3cccc(C(F)(F)F)c3)c(N)oc12 ?
Result block: < 5.70

Query block: Item Nc1sc2ccccc2c1Nc1ccc(F)c(Cl)c1 has what recorded pIC50?
Result block: > 6.30

Query block: May I ask what pIC50 has been recorded for Nc1oc2c(F)nccc2c1Nc1ccc(F)c(Cl)c1 ?
Result block: > 6.30

Query block: So what's the measured pIC50 for this one? COC(=O)Nc1oc2cnccc2c1N(C(=O)OC)c1ccc(F)c(Cl)c1
Result block: < 5.70

Query block: Entry CCOC(=O)Nc1oc2cnccc2c1N(C(=O)OCC)c1ccc(F)c(Cl)c1 has what pIC50?
Result block: < 5.70

Query block: So what's the measured pIC50 for this one? Nc1oc2cnccc2c1Nc1ccc(F)cc1Br
Result block: < 5.70

Query block: Any idea what pIC50 was measured for Nc1oc2c(-c3ccnc(C(=O)Nc4ccccc4)c3)nccc2c1Nc1ccc(F)c(Cl)c1 ?
Result block: < 5.70

Query block: # lookup: pIC50 of Nc1oc2c(-c3ccncc3)nccc2c1Nc1cccc(Cl)c1
Result block: > 6.30

Query block: Entry Nc1oc2c(-c3cc(F)ccc3Cl)nccc2c1Nc1ccc(F)c(Cl)c1 has what pIC50?
Result block: 5.70 to 6.30

----------
# pIC50 annotations
TARGET_OR_TEST_SYSTEM: Human TDO (hTDO)-transfected CHO-K1 cells (Homo sapiens (Human))
ASSAY_METHOD_TEXT: CHO-K1 cell based TDO assay
CONDITION_DETAILS: hTDO cellular assay
pIC50: −log10 of the molar value.

Worked examples follow.
CCOC(=O)Nc1oc2c(-c3cc(C)nc(C)c3)nccc2c1N(C(=O)OCC)c1ccc(F)c(Cl)c1 [Compound 165]
< 5.70
Nc1sc2ccccc2c1Nc1cccc(Cl)c1 [Compound 234]
> 6.30
Nc1oc2c(-c3ccnc(C(=O)N4CCCCC4)c3)nccc2c1Nc1ccc(F)c(Cl)c1 [Compound 271]
5.70 to 6.30
Nc1oc2c(-c3ccc4c(c3)OCO4)nccc2c1Nc1ccc(F)c(Cl)c1 [Compound 261]
5.70 to 6.30
Nc1oc2c(-c3ccc4ccccc4c3)nccc2c1Nc1ccc(F)c(Cl)c1 [Compound 247]
< 5.70

Query block: Would you kindly share the measured pIC50 for Nc1oc2c(-c3cccc(C(F)(F)F)c3)nccc2c1Nc1ccc(F)c(Cl)c1 [Compound 199] ?
Result block: < 5.70

Query block: Item under review: Nc1oc2cnccc2c1Nc1cncc(Cl)c1 [Compound 52] . Reported pIC50?
Result block: 5.70 to 6.30

Query block: Tell me the measured pIC50 of C#Cc1cc(Nc2c(N)oc3c(-c4ccncc4)nccc23)ccc1F [Compound 111] , please.
Result block: 5.70 to 6.30

Query block: For the compound Nc1oc2cnccc2c1Nc1cccnc1 [Compound 49] , what pIC50 is on record?
Result block: 5.70 to 6.30

Query block: For Nc1oc2cnccc2c1Nc1ccccc1Cl [Compound 4] , what is its reported pIC50?
Result block: < 5.70
